The measured values listed here are drawn from the supplement of paper PMC9112550.

test system: Escherichia coli TOP10; test: shrunken log2 fold change of peptide-encoding DNA abundance (4.5 h post-induction vs induction); higher = less antimicrobial activity (less host growth inhibition); conditions: time post-induction: 4.5 h; library: site-saturation at positions 5, 18, 19, 20
Exercise: for every item that follows, state its recorded shrunken log2 fold change.

Quickly give me recorded shrunken log2 fold change for RRIRDRPPRLPRPRPRPIAFPRP
0.15

Check the records and state shrunken log2 fold change for RRIRCRPPRLPRPRPRPLCCPRP
-0.237

Specify shrunken log2 fold change for RRIRARPPRLPRPRPRPEHYPRP and stop.
0.068

Answer with reported shrunken log2 fold change of RRIRGRPPRLPRPRPRPCLIPRP
-0.183

In one line, give reported shrunken log2 fold change of the entry RRIRKRPPRLPRPRPRPFWQPRP .
0.0521

Report shrunken log2 fold change, nothing else, for this sequence: RRIRHRPPRLPRPRPRPSHVPRP
-0.166

// Input: RRIRFRPPRLPRPRPRPAWGPRP . Output its shrunken log2 fold change only.
0.144

// Input: RRIRFRPPRLPRPRPRPPCTPRP . Output its shrunken log2 fold change only.
-0.228

State its shrunken log2 fold change: RRIRNRPPRLPRPRPRPSCNPRP
-0.485

Given RRIRCRPPRLPRPRPRPVHIPRP , respond with its shrunken log2 fold change.
-0.831

Look up shrunken log2 fold change of RRIRWRPPRLPRPRPRPKAFPRP and report it.
-0.0585

Give the reported shrunken log2 fold change for this sequence. RRIRERPPRLPRPRPRPGLPPRP
-0.112

Provide shrunken log2 fold change value for the following sequence: RRIRCRPPRLPRPRPRPWPHPRP
-0.0205

Please look at this sequence and report its shrunken log2 fold change: RRIRCRPPRLPRPRPRPDDNPRP
0.423

Write down shrunken log2 fold change measured for item RRIRQRPPRLPRPRPRPQMDPRP
-0.0516

Please list shrunken log2 fold change recorded for the sequence RRIRLRPPRLPRPRPRPMMYPRP
-0.0922

Fill in reported shrunken log2 fold change for this entry: RRIRARPPRLPRPRPRPAETPRP
0.398

Give the reported shrunken log2 fold change for this sequence. RRIRRRPPRLPRPRPRPTCSPRP
0.0172

Fill in shrunken log2 fold change for record RRIRARPPRLPRPRPRPGHLPRP
0.337

Output shrunken log2 fold change of RRIRSRPPRLPRPRPRPLVSPRP
0.208

Answer with the recorded shrunken log2 fold change for the sequence listed here: RRIRMRPPRLPRPRPRPWNSPRP
-0.00149

Output measured shrunken log2 fold change for this item: RRIRFRPPRLPRPRPRPHFSPRP
-0.24

In one line, give reported shrunken log2 fold change of the entry RRIRVRPPRLPRPRPRPRDVPRP .
-0.113

Specify shrunken log2 fold change for RRIRKRPPRLPRPRPRPPRWPRP and stop.
1.07

Give shrunken log2 fold change for RRIRNRPPRLPRPRPRPNVYPRP
-0.17

Answer with reported shrunken log2 fold change of RRIRGRPPRLPRPRPRPNQKPRP
0.0822

Supply reported shrunken log2 fold change belonging to this sequence: RRIRNRPPRLPRPRPRPLPEPRP
-0.00875

# return recorded shrunken log2 fold change for input RRIRARPPRLPRPRPRPHTIPRP
-0.734

Please report the measured shrunken log2 fold change for RRIRSRPPRLPRPRPRPHEEPRP
0.0919

Specify measured shrunken log2 fold change for RRIRQRPPRLPRPRPRPLIEPRP .
-0.042

Output shrunken log2 fold change of RRIRKRPPRLPRPRPRPRGYPRP
0.166

Give shrunken log2 fold change for RRIRHRPPRLPRPRPRPLPYPRP
-0.137

Supply reported shrunken log2 fold change belonging to this sequence: RRIRKRPPRLPRPRPRPQANPRP
0.066

Specify reported shrunken log2 fold change for the sequence shown: RRIRARPPRLPRPRPRPKYEPRP
0.13

Indicate the recorded shrunken log2 fold change value for this sequence: RRIRGRPPRLPRPRPRPVPGPRP
0.742

Look up and report measured shrunken log2 fold change for this entry: RRIRCRPPRLPRPRPRPWMKPRP
-0.0192

Indicate its recorded shrunken log2 fold change; the sequence in question is RRIRKRPPRLPRPRPRPTWDPRP
0.289

Identify the reported shrunken log2 fold change for the following entry. RRIRQRPPRLPRPRPRPEETPRP
-0.0125

Identify measured shrunken log2 fold change associated with RRIRNRPPRLPRPRPRPFTWPRP
-0.62

Give recorded shrunken log2 fold change. RRIRSRPPRLPRPRPRPCFNPRP
-0.828

Dear colleague, please send me the reported shrunken log2 fold change for RRIRTRPPRLPRPRPRPTDWPRP when you can.
0.218

Give the measured shrunken log2 fold change for RRIRSRPPRLPRPRPRPHKPPRP
-0.507

# return recorded shrunken log2 fold change for entry RRIRSRPPRLPRPRPRPMLQPRP
-0.0416

Please list shrunken log2 fold change recorded for the sequence RRIRDRPPRLPRPRPRPNLMPRP
0.0913

Give shrunken log2 fold change for the following sequence: RRIRYRPPRLPRPRPRPCMVPRP
-0.251

Supply shrunken log2 fold change value. Item: RRIRERPPRLPRPRPRPVKQPRP
-0.0109

Specify reported shrunken log2 fold change for the sequence shown: RRIRTRPPRLPRPRPRPHDYPRP
-0.196

Please indicate shrunken log2 fold change recorded for RRIRWRPPRLPRPRPRPKGFPRP
0.437

====

tested on: Escherichia coli TOP10; assay: shrunken log2 fold change of peptide-encoding DNA abundance (4.5 h post-induction vs induction); higher = less antimicrobial activity (less host growth inhibition); details: time post-induction: 4.5 h; library: site-saturation at positions 5, 18, 19, 20;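 note: peptides expressed intracellularly from a pBAD plasmid library in pooled LB shake-flask culture, induced with 0.3% L-arabinose, DNA abundance read by NGS, three biological replicates, DESeq2 with apeglm shrinkage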
Give measured shrunken log2 fold change for each item. Keep answers brief.
// print number alone

State its shrunken log2 fold change: RRIRYRPPRLPRPRPRPTGFPRP
-0.0281

Please report shrunken log2 fold change for the following sequence: RRIRFRPPRLPRPRPRPKPFPRP
0.0515

Given RRIRGRPPRLPRPRPRPTTHPRP , respond with its shrunken log2 fold change.
0.875

Answer with reported shrunken log2 fold change of RRIRPRPPRLPRPRPRPTWRPRP
0.639

Quote shrunken log2 fold change reported for RRIRSRPPRLPRPRPRPDPNPRP please.
-0.000549

Input RRIRLRPPRLPRPRPRPHAWPRP , output reported shrunken log2 fold change.
0.62

Read off the recorded shrunken log2 fold change for RRIRRRPPRLPRPRPRPGCCPRP
0.589

Give me measured shrunken log2 fold change, please, for this sequence: RRIRGRPPRLPRPRPRPQLFPRP
0.838

Please give the documented shrunken log2 fold change of RRIRDRPPRLPRPRPRPEGKPRP
-0.0117

Please look at this sequence and report its shrunken log2 fold change: RRIRFRPPRLPRPRPRPMWCPRP
0.0155

Output shrunken log2 fold change of RRIRRRPPRLPRPRPRPEMEPRP
0.0355

Report measured shrunken log2 fold change; entry is RRIRRRPPRLPRPRPRPHTKPRP
0.179

Give the reported shrunken log2 fold change for this sequence. RRIRWRPPRLPRPRPRPLILPRP
-0.604

Query shrunken log2 fold change for RRIRARPPRLPRPRPRPHAKPRP
-0.0556

Let me know recorded shrunken log2 fold change for RRIRNRPPRLPRPRPRPGNIPRP , thanks.
-0.161

Kindly indicate its recorded shrunken log2 fold change. Item: RRIRYRPPRLPRPRPRPVIFPRP
-0.331

Tell me measured shrunken log2 fold change for RRIRWRPPRLPRPRPRPWIKPRP please.
-0.203

State its shrunken log2 fold change: RRIRGRPPRLPRPRPRPISLPRP
-0.228

Fill in shrunken log2 fold change for record RRIRERPPRLPRPRPRPSTGPRP
-0.467

Input RRIRHRPPRLPRPRPRPCVNPRP , output reported shrunken log2 fold change.
-0.166

For RRIRWRPPRLPRPRPRPQNKPRP , write its shrunken log2 fold change.
-0.536

Return the recorded shrunken log2 fold change value; entry: RRIRKRPPRLPRPRPRPDFCPRP
0.129

Tell us which shrunken log2 fold change value is on record for RRIRWRPPRLPRPRPRPQGFPRP
-0.0818

Annotate the sequence RRIRGRPPRLPRPRPRPLHGPRP with its measured shrunken log2 fold change.
0.212

Please give measured shrunken log2 fold change of the following entry: RRIRIRPPRLPRPRPRPNSDPRP
-0.267

Read the entry RRIRTRPPRLPRPRPRPTMYPRP and write its reported shrunken log2 fold change.
-0.82

Identify the reported shrunken log2 fold change for the following entry. RRIRIRPPRLPRPRPRPFMQPRP
-0.91

For the sequence RRIRNRPPRLPRPRPRPCCCPRP , report shrunken log2 fold change.
-0.0783

Return shrunken log2 fold change (reported value) for this sequence: RRIRRRPPRLPRPRPRPKGDPRP
0.3

Given RRIRLRPPRLPRPRPRPIVAPRP , respond with its shrunken log2 fold change.
-0.0323

Assign shrunken log2 fold change to the following record: RRIRERPPRLPRPRPRPPTYPRP
-0.168

Answer with reported shrunken log2 fold change of RRIRQRPPRLPRPRPRPYIGPRP
-0.681

Recall and state the measured shrunken log2 fold change for RRIRGRPPRLPRPRPRPPPFPRP .
0.887

Hello, please tell me recorded shrunken log2 fold change for this one: RRIRCRPPRLPRPRPRPASFPRP
-0.176

Give the measured shrunken log2 fold change for RRIRYRPPRLPRPRPRPPTHPRP
-0.251

Give reported shrunken log2 fold change value for RRIRLRPPRLPRPRPRPQNIPRP
-0.512

Quickly give me recorded shrunken log2 fold change for RRIRGRPPRLPRPRPRPSPAPRP
0.901

Given RRIRSRPPRLPRPRPRPVKDPRP , respond with its shrunken log2 fold change.
-0.315

// fetch shrunken log2 fold change given entry RRIRWRPPRLPRPRPRPKICPRP
0.357

State its shrunken log2 fold change: RRIRCRPPRLPRPRPRPTNKPRP
-0.0578

Report measured shrunken log2 fold change; entry is RRIRGRPPRLPRPRPRPGMEPRP
1.54

For the sequence RRIRTRPPRLPRPRPRPSPDPRP , give its measured shrunken log2 fold change value.
-0.331

Please give the documented shrunken log2 fold change of RRIRRRPPRLPRPRPRPEASPRP
0.75

Fill in shrunken log2 fold change for record RRIRCRPPRLPRPRPRPIVFPRP
-0.31

For the sequence RRIRGRPPRLPRPRPRPEIFPRP , report shrunken log2 fold change.
1.02

Supply shrunken log2 fold change value. Item: RRIRGRPPRLPRPRPRPGTCPRP
0.165

Supply reported shrunken log2 fold change belonging to this sequence: RRIRVRPPRLPRPRPRPYSFPRP
-0.594

Retrieve shrunken log2 fold change measured for RRIRCRPPRLPRPRPRPGGDPRP and print it.
0.142

Consider the sequence RRIRERPPRLPRPRPRPRSWPRP . State its measured shrunken log2 fold change.
0.0987

Entry RRIRHRPPRLPRPRPRPPGKPRP needs its shrunken log2 fold change filled in; supply it.
-0.155

Identify measured shrunken log2 fold change associated with RRIRGRPPRLPRPRPRPLFQPRP
0.266

Return value of shrunken log2 fold change for input RRIRDRPPRLPRPRPRPERDPRP , no commentary.
0.312

Query shrunken log2 fold change for RRIRYRPPRLPRPRPRPDLAPRP
-0.344

Return reported shrunken log2 fold change. Input sequence: RRIRLRPPRLPRPRPRPDGPPRP
0.0394

Supply measured shrunken log2 fold change of RRIRPRPPRLPRPRPRPYVYPRP in your reply.
-0.636
